These data points were gathered from the Kinase Knowledgebase extract (Sharma et al. 2016).

Assay system EGFR (UniProt P00533); read-out recorded as IC50.

Below, each entry is followed by its recorded IC50 result.
{"compound": "COC(=O)c1ccc(Nc2ncnc(Nc3cc(-c4ccco4)n[nH]3)n2)cc1", "IC50": "> 4.5 µg/mL"}
{"compound": "COc1cc(Nc2ncnc(-c3cccnc3Nc3ccc(C(C)=O)cc3)n2)cc(OC)c1OC", "IC50": "> 4.5 µg/mL"}

Reading of IC50 for c1coc(-c2cc(Nc3ncnc(Nc4ccc(-c5csnn5)cc4)n3)n[nH]2)c1 with EGFR (UniProt P00533): 0.4 to 2.4 µg/mL

* * *

Assay system EGFR (UniProt P00533); read-out recorded as IC50.

{"smiles.entry": "CCN(c1ccc(C)cc1)c1ncnc(Nc2cc(OC)c(OC)c(OC)c2)n1", "system": "EGFR (UniProt P00533)", "readout.label": "IC50", "observed.value": "< 0.4 µg/mL"}
{"smiles.entry": "FC(F)(F)c1ccc(Cl)c(Nc2ncnc(-n3cccc3)n2)c1", "system": "EGFR (UniProt P00533)", "readout.label": "IC50", "observed.value": "> 4.5 µg/mL"}
{"smiles.entry": "CC(=O)NCc1ccc(Nc2ncnc(Nc3cc(-c4ccco4)n[nH]3)n2)cc1", "system": "EGFR (UniProt P00533)", "readout.label": "IC50", "observed.value": "0.4 to 2.4 µg/mL"}
{"smiles.entry": "Cc1ccc(Nc2ncnc(-n3cccc3)n2)cc1Cl", "system": "EGFR (UniProt P00533)", "readout.label": "IC50", "observed.value": "> 4.5 µg/mL"}
{"smiles.entry": "COCCCNc1ncnc(N2CCCc3cc(C)ccc32)n1", "system": "EGFR (UniProt P00533)", "readout.label": "IC50", "observed.value": "3.5 to 4.5 µg/mL"}

For reference, reported IC50 for COc1cc(Nc2ncnc(Nc3cc(C(C)(C)C)[nH]n3)n2)cc(OC)c1OC stands at 0.4 to 2.4 µg/mL

* * *

Known IC50 of a selection of molecules
# system: EGFR (UniProt P00533)
# Sequence (P00533 whole entry, looked up): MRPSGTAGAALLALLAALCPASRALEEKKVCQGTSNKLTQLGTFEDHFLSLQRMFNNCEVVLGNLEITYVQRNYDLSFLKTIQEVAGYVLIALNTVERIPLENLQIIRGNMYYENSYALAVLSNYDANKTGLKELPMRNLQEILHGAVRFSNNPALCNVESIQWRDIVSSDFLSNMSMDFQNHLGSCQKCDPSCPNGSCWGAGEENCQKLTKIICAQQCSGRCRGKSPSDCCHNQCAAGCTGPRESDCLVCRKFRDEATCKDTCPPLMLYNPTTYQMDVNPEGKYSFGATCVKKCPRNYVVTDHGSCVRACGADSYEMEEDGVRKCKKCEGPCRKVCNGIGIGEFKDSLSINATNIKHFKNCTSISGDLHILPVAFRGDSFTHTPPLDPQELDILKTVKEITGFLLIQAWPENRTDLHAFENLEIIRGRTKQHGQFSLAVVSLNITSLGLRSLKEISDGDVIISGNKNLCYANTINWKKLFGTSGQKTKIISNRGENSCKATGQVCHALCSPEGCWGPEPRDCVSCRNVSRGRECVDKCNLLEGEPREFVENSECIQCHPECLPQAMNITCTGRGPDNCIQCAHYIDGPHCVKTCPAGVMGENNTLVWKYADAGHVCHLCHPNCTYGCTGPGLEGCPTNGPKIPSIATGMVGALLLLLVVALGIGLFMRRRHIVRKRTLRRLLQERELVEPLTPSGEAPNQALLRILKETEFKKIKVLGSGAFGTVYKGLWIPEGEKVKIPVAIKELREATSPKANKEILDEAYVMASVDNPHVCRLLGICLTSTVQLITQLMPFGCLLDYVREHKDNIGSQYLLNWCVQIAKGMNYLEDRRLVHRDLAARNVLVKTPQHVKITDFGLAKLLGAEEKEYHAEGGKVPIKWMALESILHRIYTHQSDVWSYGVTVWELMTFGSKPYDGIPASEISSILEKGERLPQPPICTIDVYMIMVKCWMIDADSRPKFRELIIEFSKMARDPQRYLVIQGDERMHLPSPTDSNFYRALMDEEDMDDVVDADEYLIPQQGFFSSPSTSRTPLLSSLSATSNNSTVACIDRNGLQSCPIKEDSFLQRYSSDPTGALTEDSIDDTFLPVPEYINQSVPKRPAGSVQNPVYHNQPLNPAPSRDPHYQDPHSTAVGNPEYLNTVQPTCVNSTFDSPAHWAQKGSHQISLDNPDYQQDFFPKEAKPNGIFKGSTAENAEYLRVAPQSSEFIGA

Below, each entry is followed by its recorded IC50 result.
{"smiles.entry": "COc1cc(Nc2ncnc(N(C)c3ccc(Cl)cc3)n2)cc(OC)c1OC", "observed.value": "< 0.4 µg/mL"}
{"smiles.entry": "CC(C)(C)c1cc(Nc2ncnc(Cl)n2)[nH]n1", "observed.value": "> 4.5 µg/mL"}
{"smiles.entry": "O=c1[nH]c2ccccc2n1-c1ncnc(Nc2cc(C(F)(F)F)cc(C(F)(F)F)c2)n1", "observed.value": "> 4.5 µg/mL"}
{"smiles.entry": "COc1cc(Nc2ncnc(Nc3ccc4nn(C)cc4c3)n2)cc(OC)c1OC", "observed.value": "0.4 to 2.4 µg/mL"}

For reference, reported IC50 for COc1cc(Nc2ncnc(-n3cc(CCO)c4ccccc43)n2)cc(OC)c1OC stands at > 4.5 µg/mL

* * *

Assay system EGFR (UniProt P00533); read-out recorded as IC50.

Below, each entry is followed by its recorded IC50 result.
{"smiles.entry": "O=C(O)CCNC(=O)c1ccc(Nc2ncnc(Nc3cc(-c4ccco4)[nH]n3)n2)cc1", "IC50": "0.4 to 2.4 µg/mL"}
{"smiles.entry": "O=c1[nH]c2ccccc2n1-c1ncnc(Nc2cccc(NS(=O)(=O)c3ccc([N+](=O)[O-])cc3)c2)n1", "IC50": "0.4 to 2.4 µg/mL"}
{"smiles.entry": "CC(C)Nc1ncccc1-c1ncnc(Nc2ccc(C(N)=O)cc2)n1", "IC50": "> 4.5 µg/mL"}
{"smiles.entry": "COc1cc(Nc2ncnc(-c3cccnc3Nc3cccc(OCc4ccccc4)c3)n2)cc(OC)c1OC", "IC50": "3.5 to 4.5 µg/mL"}
{"smiles.entry": "O=c1[nH]c2ccccc2n1-c1ncnc(Nc2cccc(S(=O)(=O)CCO)c2)n1", "IC50": "> 4.5 µg/mL"}

Turning to the following compound.
Reading of IC50 for COc1cc(Nc2ncnc(Nc3cc(-c4ccccc4)nn3C)n2)cc(OC)c1OC with EGFR (UniProt P00533): 3.5 to 4.5 µg/mL
